Reference source for all entries: ChEMBL document CHEMBL1130507

Catalogue of IC50 readings, one per entry.
target: Farnesyltransferase (Saccharomyces cerevisiae S288c, UniProt P22007+P29703); assay: Inhibition of yeast Farnesyl transferase
Sequence (P29703 whole entry): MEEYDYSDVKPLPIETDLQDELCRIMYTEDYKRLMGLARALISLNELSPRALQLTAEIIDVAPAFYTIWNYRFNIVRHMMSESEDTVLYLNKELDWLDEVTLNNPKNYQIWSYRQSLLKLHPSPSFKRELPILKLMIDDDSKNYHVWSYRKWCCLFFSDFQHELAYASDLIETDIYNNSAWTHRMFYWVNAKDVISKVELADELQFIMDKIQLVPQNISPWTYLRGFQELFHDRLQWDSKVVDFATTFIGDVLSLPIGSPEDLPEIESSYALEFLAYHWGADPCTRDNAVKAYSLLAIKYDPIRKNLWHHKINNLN
Sequence (P22007 whole entry): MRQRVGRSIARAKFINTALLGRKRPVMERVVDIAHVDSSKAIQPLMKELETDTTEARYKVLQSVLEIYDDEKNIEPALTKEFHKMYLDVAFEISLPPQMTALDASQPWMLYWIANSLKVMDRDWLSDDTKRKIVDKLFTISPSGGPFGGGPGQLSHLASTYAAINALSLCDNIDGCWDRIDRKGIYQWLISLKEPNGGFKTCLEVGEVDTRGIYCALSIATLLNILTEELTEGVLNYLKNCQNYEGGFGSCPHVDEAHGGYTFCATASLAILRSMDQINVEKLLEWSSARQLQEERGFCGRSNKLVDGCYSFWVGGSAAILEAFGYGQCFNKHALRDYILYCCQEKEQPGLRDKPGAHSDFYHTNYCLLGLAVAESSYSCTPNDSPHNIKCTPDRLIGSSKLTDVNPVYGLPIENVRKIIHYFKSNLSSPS
Form entry: enter the amount, then its unit.

Some solved entries appear below for comparison.
• C/C(=C\COP(=O)(O)OP(=O)(O)O)CC/C=C(\C)COC(=O)c1cccc(C(=O)c2ccccc2)c1 = 2.3 µM
• C/C(=C\COP(=O)(O)OP(=O)(O)O)CNC(=O)c1cccc(C(=O)c2ccccc2)c1 = 37 µM
• C/C(=C\COP(=O)(O)OP(=O)(O)O)COC(=O)c1cccc(C(=O)c2ccccc2)c1 = 2 µM
• C/C(=C\COP(=O)(O)OP(=O)(O)O)CC/C=C(\C)CN1C(=O)c2ccccc2C1=O = 10 µM

Here is another compound to look at.
The compound listed as "C/C(=C\COP(=O)(O)OP(=O)(O)O)CC/C=C(\C)CNC(=O)c1cccc(C(=O)c2ccccc2)c1" shows IC50 equal to 3.7 µM
